target: Epidermal Growth Factor Receptor (EGFR), extracellular domain (EGFR-ECD) (Homo sapiens); construct: full-length EGFR in DiscoverX PathHunter enzyme-complementation cells, EGF-stimulated; assay: cell-based; parameters: DiscoverX PathHunter EGFR dimerization/activation assay, chemiluminescence
Sequence (P00533 25-1210): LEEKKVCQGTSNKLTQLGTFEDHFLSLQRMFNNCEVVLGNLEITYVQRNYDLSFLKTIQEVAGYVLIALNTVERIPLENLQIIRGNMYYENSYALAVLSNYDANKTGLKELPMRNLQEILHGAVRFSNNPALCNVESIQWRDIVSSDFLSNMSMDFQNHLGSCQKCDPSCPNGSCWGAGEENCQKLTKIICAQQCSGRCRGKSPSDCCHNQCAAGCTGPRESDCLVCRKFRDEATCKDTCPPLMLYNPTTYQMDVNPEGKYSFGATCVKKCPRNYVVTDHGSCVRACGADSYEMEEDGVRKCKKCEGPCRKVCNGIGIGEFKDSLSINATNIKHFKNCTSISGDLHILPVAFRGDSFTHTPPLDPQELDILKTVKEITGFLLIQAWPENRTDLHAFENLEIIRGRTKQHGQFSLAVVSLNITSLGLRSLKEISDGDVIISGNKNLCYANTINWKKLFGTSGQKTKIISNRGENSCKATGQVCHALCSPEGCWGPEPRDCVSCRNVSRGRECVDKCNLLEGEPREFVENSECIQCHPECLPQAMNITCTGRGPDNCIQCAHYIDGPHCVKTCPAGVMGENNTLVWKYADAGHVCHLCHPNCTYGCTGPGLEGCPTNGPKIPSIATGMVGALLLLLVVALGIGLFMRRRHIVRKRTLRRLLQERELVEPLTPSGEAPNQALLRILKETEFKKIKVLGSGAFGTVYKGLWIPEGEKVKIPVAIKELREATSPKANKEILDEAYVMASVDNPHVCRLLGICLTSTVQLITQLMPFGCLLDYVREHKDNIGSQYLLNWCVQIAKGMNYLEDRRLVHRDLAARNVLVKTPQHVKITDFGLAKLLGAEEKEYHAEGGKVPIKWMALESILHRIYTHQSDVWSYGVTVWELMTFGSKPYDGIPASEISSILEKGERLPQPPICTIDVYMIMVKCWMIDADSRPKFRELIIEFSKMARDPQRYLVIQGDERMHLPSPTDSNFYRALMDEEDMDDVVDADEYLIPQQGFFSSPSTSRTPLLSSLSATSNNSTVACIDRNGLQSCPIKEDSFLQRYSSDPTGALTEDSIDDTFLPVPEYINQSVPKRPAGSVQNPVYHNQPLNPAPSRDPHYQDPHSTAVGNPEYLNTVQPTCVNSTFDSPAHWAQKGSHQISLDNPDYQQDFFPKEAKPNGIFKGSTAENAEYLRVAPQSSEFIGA
OBSERVATION_TYPE: inhibition at 10 µM (%)
Output spec: scalar in %, unitless text.

Value wanted: inhibition at 10 µM (Epidermal Growth Factor Receptor (EGFR), extracellular domain (EGFR-ECD) (Homo sapiens)) of entry COc1cccc(Nc2nc(O)c3cc(-c4cc(OC)cc(OC)c4)c(=O)oc3n2)c1
0

// repeat for CCc1cnc(Oc2cccc(NC(=O)NC(=O)c3ccccc3[N+](=O)[O-])c2)nc1 and report
0

Okay, and CCOC(=O)c1ccc(NS(=O)(=O)c2ccc(Cl)cc2[N+](=O)[O-])cc1 ?
2

Quick one: O=[N+]([O-])c1cc(Cl)ccc1S(=O)(=O)Nc1cccc(Cl)c1
0

Next: c1ccc2c(CN3CCOCC3)c3ccccc3c(CN3CCOCC3)c2c1
19

Consider next the molecule c1ccc2c(CN3CCCCC3)c3ccccc3c(CN3CCCCC3)c2c1 in the same way.
16

Now give it for CC(=O)c1cccc2cc3c(C(C)=O)cccc3cc12 too.
0

Can you check CN(C)CCNc1ccc(F)c2c1C(=O)c1ccccc1C2=O next?
39

Can you handle O=C(O)Cc1ccc(/N=C2/C(=O)Nc3ccccc32)cc1 next?
42

====

biological target: Epidermal Growth Factor Receptor (EGFR), extracellular domain (EGFR-ECD) (Homo sapiens); construct: full-length EGFR in DiscoverX PathHunter enzyme-complementation cells, EGF-stimulated; test: cell-based; set-up: DiscoverX PathHunter EGFR dimerization/activation assay, chemiluminescence
Hi, to clarify the labels: fulfilled covers inhibition at 10 µM from 10% upward, not fulfilled covers anything below 10%.

Dear colleague, could you confirm whether COc1cccc(Nc2nc(N(C)C)c3cc(-c4c(Cl)cccc4Cl)c(=O)oc3n2)c1 has inhibition at 10 µM at or above 10%?
not fulfilled

What about COc1cccc(Nc2ncc(C(=O)O)c(O)n2)c1 ?
fulfilled

Note, next up: CC(=O)Nc1ccc(/C=C2/N=C(c3cccnc3Cl)OC2=O)cc1
not fulfilled

Also need O=C(O)COCC(=O)OCc1cc(O)c2c(c1)C(=O)c1cccc(O)c1C2=O , thanks.
not fulfilled

Would you mind doing CS(=O)(=O)Nc1ccc(NC(=O)c2ccc3c(c2)C(=O)c2c(NCCN4CCNCC4)ccc(NCCN4CCNCC4)c2C3=O)cc1 as well?
fulfilled

Further, for O=C(Nc1ccc(Nc2cc(-c3ccccc3)ncn2)cc1)Nc1ccc(C(=O)O)cc1 ?
fulfilled

Queued: O=C(NC(=O)c1ccccc1)Nc1cccc(Oc2ncc(Cl)cn2)c1
fulfilled

Let us now turn to CC(=O)n1cc(/C=C2/N=C(c3ccccc3)OC2=O)c2ccccc21
not fulfilled

Same again, this time with O=C(O)Cc1ccc(/N=C2/C(=O)Nc3ccc(Br)cc32)cc1
fulfilled

Next compound up: COc1ccc2c(C)c(CCC(=O)Nc3ccc(C(=O)O)cc3)c(=O)oc2c1C
not fulfilled

And what about the compound CN(C)c1ccc(/C=C2/N=C(c3ccccc3)OC2=O)cc1 ?
fulfilled

Same question, CCc1cnc(Oc2cccc(NC(=S)NC(=O)c3ccccc3)c2)nc1 this time
not fulfilled

Try this compound next: Nc1ccc2cc3cc(N)ccc3cc2c1
not fulfilled

Similarly, COCCOc1ccc2c(C)c(CCC(=O)Nc3ccc(C(=O)O)cc3)c(=O)oc2c1 ?
not fulfilled

Again, but for COc1cccc(Nc2nc(O)c3cc(-c4c(Cl)cccc4Cl)c(=O)oc3n2)c1
fulfilled

Then what about the compound Cc1cccc(Nc2ncnc3oc(=O)c(-c4c(Cl)cccc4Cl)cc23)c1 ?
not fulfilled

What do you have for CC(NC(=O)C(NC(=O)OCc1ccccc1)C(C)C)C(=O)OCCCCCNc1ccc(NCCCCCOC(=O)C(C)NC(=O)C(NC(=O)OCc2ccccc2)C(C)C)c2c1C(=O)c1ccccc1C2=O (stereo not drawn) ?
not fulfilled

Try this compound next: O=[N+]([O-])c1cc(Cl)ccc1S(=O)(=O)N1CCOCC1
fulfilled
